All values here come from patent US20250108023A1.

Assayed target: sodium ion channel of Trpm5 bitter receptor (Mus musculus, UniProt Q9JJH7)
Construct: Put the removed tongue in a 2 ml EP tube, add 1-1.5 ml of 0.25% trypsin solution; from tissue; host or cells: cells dissociated with trypsin from mouse tongue
Sequence (Q9JJH7 1-1158): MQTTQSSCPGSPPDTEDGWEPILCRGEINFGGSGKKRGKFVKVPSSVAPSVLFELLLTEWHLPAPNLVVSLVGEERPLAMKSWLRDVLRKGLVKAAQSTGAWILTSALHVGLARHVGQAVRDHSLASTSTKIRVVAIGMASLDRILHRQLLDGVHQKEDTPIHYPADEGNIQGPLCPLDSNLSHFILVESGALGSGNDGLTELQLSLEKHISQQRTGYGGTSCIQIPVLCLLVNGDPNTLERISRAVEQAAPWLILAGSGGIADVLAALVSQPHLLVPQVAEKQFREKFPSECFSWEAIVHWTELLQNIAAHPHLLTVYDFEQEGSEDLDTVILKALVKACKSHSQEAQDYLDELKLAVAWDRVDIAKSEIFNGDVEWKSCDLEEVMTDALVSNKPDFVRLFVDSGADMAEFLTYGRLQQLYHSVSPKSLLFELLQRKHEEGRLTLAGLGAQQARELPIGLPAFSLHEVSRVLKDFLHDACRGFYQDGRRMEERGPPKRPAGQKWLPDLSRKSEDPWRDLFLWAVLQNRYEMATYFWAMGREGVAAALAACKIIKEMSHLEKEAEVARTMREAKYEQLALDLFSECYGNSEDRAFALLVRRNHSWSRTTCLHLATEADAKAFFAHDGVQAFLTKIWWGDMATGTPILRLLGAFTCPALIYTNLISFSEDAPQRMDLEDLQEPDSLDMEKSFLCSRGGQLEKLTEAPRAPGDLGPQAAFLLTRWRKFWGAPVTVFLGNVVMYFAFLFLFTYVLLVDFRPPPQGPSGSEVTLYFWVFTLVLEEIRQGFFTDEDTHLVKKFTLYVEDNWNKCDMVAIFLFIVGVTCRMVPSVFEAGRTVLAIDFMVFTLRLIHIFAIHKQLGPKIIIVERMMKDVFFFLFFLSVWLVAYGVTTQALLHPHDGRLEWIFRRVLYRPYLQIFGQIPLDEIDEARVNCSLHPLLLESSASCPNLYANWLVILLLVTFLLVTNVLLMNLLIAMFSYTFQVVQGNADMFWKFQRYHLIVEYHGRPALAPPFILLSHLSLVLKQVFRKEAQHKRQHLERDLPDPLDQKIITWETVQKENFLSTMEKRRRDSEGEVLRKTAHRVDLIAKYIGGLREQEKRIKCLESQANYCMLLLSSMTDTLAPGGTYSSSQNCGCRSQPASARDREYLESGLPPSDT
Assay remarks: Immunofluorescence experiment of sodium ion channels in mouse tongue cells stimulated with bitter agent
Format: cell-based, mice
Assay context: Bitterant 120 s (2% metronidazole solution)
Each entry below carries its recorded average value of fluorescence brightness.
Measurement type: average value of fluorescence brightness

compound="O=P(c1ccccc1)(c1ccccc1)c1ccccc1 [Triphenylphosphine oxide, reference compound]" assayed_target="sodium ion channel of Trpm5 bitter receptor (Mus musculus, UniProt Q9JJH7)" numeric_result=88.598
compound="CC1CCC(C(C)C)C(OC(=O)C(C)O)C1 (stereo not shown) [Menthyl lactate]" assayed_target="sodium ion channel of Trpm5 bitter receptor (Mus musculus, UniProt Q9JJH7)" numeric_result=27.831
compound="CC1CCC(C(C)C)C(O)C1 (stereo not shown)" assayed_target="sodium ion channel of Trpm5 bitter receptor (Mus musculus, UniProt Q9JJH7)" numeric_result=21.924
compound=CC(C)=CCCC(C)=CC=O assayed_target="sodium ion channel of Trpm5 bitter receptor (Mus musculus, UniProt Q9JJH7)" numeric_result=29.742
compound="CC1CCC(C(C)C)C(=O)C1 (stereo not shown)" assayed_target="sodium ion channel of Trpm5 bitter receptor (Mus musculus, UniProt Q9JJH7)" numeric_result=25.447
compound="COc1cc(C(=O)O)ccc1O [Vanillic acid, 3-methoxy-4-hydroxybenzoic acid]" assayed_target="sodium ion channel of Trpm5 bitter receptor (Mus musculus, UniProt Q9JJH7)" numeric_result=26.699
compound="C=CCc1ccc(OC(C)=O)c(OC)c1 [Eugenol acetate]" assayed_target="sodium ion channel of Trpm5 bitter receptor (Mus musculus, UniProt Q9JJH7)" numeric_result=26.368
compound="CC(C)[C@@H]1CC[C@@H](C)C[C@H]1OC(=O)CCC(=O)O [Menthyl succinate]" assayed_target="sodium ion channel of Trpm5 bitter receptor (Mus musculus, UniProt Q9JJH7)" numeric_result=28.8
compound=CCCCC[C@H](O)CC(=O)CCc1ccc(O)c(OC)c1 assayed_target="sodium ion channel of Trpm5 bitter receptor (Mus musculus, UniProt Q9JJH7)" numeric_result=25.137
compound="C=CC(C)(O)CCC=C(C)C (stereo not shown)" assayed_target="sodium ion channel of Trpm5 bitter receptor (Mus musculus, UniProt Q9JJH7)" numeric_result=27.44
compound=NCCCC(=O)O assayed_target="sodium ion channel of Trpm5 bitter receptor (Mus musculus, UniProt Q9JJH7)" numeric_result=27.21
compound="COc1ccc(CCN(C)CCCC(C#N)(c2ccc(OC)c(OC)c2)C(C)C)cc1OC (stereo not shown) [Verapamil, reference compound]" assayed_target="sodium ion channel of Trpm5 bitter receptor (Mus musculus, UniProt Q9JJH7)" numeric_result=27.651
compound=O=CC=Cc1ccccc1 assayed_target="sodium ion channel of Trpm5 bitter receptor (Mus musculus, UniProt Q9JJH7)" numeric_result=30.691
